// molecules with pIC50 on Platelet-derived growth factor receptor beta (Homo sapiens), multi-source literature
Sequence (P09619 whole entry): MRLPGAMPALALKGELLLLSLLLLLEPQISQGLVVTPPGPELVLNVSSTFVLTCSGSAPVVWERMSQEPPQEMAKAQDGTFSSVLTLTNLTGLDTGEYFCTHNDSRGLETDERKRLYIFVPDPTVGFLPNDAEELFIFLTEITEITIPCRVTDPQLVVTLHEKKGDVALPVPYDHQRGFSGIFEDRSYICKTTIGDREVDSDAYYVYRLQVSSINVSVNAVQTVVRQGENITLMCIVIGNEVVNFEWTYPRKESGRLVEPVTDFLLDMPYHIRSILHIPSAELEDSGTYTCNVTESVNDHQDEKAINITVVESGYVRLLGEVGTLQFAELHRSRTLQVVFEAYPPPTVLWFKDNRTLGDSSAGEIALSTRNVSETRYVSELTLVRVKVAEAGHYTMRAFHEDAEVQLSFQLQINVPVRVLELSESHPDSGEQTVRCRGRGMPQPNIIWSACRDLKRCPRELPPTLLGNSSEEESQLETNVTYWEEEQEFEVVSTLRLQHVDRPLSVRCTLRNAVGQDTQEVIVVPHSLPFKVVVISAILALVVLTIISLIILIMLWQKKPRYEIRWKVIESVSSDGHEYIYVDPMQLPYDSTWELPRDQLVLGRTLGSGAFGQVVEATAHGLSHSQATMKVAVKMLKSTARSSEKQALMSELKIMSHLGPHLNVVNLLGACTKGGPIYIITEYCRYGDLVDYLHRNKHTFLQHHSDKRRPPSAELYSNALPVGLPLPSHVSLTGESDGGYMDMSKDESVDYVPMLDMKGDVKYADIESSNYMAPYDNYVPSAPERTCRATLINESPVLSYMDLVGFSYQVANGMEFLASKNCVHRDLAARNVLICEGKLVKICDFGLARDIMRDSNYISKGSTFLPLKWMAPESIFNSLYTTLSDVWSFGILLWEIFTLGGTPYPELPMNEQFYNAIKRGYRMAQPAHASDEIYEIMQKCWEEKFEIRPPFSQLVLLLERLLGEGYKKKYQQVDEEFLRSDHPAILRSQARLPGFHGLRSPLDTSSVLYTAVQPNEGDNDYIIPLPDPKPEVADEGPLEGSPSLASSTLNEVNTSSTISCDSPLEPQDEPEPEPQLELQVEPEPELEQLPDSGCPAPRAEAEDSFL
pIC50: −log10 of the molar value.

// worked examples, pIC50 included
>>> result("Cc1cccc2c1/C(=C/c1ccc[nH]1)C(=O)N2")
"< 4.00"
>>> result("CC(NC(=O)c1ccc2[nH]nc(-c3ccncc3)c2c1)c1cccc(Cl)c1 (configuration not stated)")
"< 6.00"
>>> result("Cc1cc(C)c(/C=C2\\C(=O)Nc3ncnc(Nc4ccc(F)c(Cl)c4)c32)[nH]1")
"< 4.00"
>>> result("CS(=O)(=O)CC(NC1CCCCC1)c1ccc(-c2ccc3ncnc(Nc4ccc(OCc5cccc(F)c5)c(Cl)c4)c3c2)o1 (racemic)")
"< 3.70"

Your task in this section: give pIC50 for each listed record.
1. Cc1c[nH]c(/C=C2\C(=O)Nc3ccccc32)c1C
2. COc1ccc(CCc2cc3c(Nc4cccc(Br)c4)nc(N)nc3[nH]2)cc1
3. COc1cc2c(Nc3ccc(-c4nc5ccccc5s4)cc3O)ncnc2cc1OCCCN1CCN(C)CC1
4. COC(=O)c1c(OC)c2ccccc2c2oc3c(c12)C(=O)c1ccccc1C3=O
5. CCCCCCCCN1C(=O)c2cccc3c(NCCNCCN(C)C)ccc(c23)C1=O
6. COc1ccc(/C=C2\C(=O)Nc3ccccc32)cc1
7. CS(=O)(=O)C[C@@H](N)c1ccc(-c2ccc3ncnc(Nc4ccc(OCc5cccc(F)c5)c(Cl)c4)c3c2)o1

["< 4.00", "< 4.30", "< 5.00", "< 4.30", "< 4.30", "< 4.00", "< 3.70"]
